# measurement notes: The compound was tested for the inhibition of alanine racemase from Pseudomonas aeruginosa

| query smiles | unit of measure | Ki |
| --- | --- | --- |
| CCC(=N)P(=O)(O)O | mM | 8.5 |

Origin of values: BindingDB's records for doi:10.1021/jm00154a024
